- targetEntity: HLA-A*1101 (human)
- methodDescription: competition with 125I-labelled standard peptide for purified HLA-A*1101, gel filtration
The reader will find reported relative binding ratio (IC50 of standard peptide / IC50 of test peptide) values listed item by item below.
measuredMetric: relative binding ratio (IC50 of standard peptide / IC50 of test peptide)

>>> df
                                      binder  observed
 0  WTGRCMSCCR (modifications not checked) [… (HPV16 E6, position 139, 10 amino acids)]    0.0008
 1  SCCRSSRTR (modifications not checked) [… (HPV16 E6, position 145, 9 amino acids)]    0.0001
 2  CVQSTHVDIR (modifications not checked) [… (HPV16 E7, position 68, 10 amino acids)]    0.0001
 3  PLCPEEKQR (modifications not checked) [… (HPV16 E6, position 116, 9 amino acids)]    0.0005
 4  AICIEKQSR (modifications not checked) [HPV16 E1 112 …]    0.0057
 5  YCKQQLLRR (modifications not checked) [… (HPV16 E6, position 39, 9 amino acids)]    0.0001
 6  VCDKCLKFY (modifications not checked) [… (HPV16 E6, position 69, 9 amino acids)]    0.0002
 7  EGTGCNGWFY (modifications not checked) [HPV16 E1 11 …]    0.0002
 8  TGRCMSCCR (modifications not checked) [… (HPV16 E6, position 140, 9 amino acids)]    0.0001
 9  CCKCDSTLR (modifications not checked) [… (HPV16 E7, position 58, 9 amino acids)]    0.0001
10  QAEPDRAHY (modifications not checked) [… (HPV16 E7, position 44, 9 amino acids)]    0.0002
